All values here come from ChEMBL document CHEMBL1124918.

tested on: V79; test: Concentration which reduced survival to 1% following incubation 3 hours with V79 mammalian cells under hypoxic (Cnitrogen) conditions; assay type: functional, cell-based; conditions: Cricetulus griseus
Concentration by entry:
Please state the figure in mM; there is no need to write the unit.

compound	Concentration [mM]
Br.O=[N+]([O-])c1nccn1CC(O)CNCCBr (stereo unspecified)	0.09
Cl.O=[N+]([O-])c1nccn1CC(O)CNCCCl (stereo unspecified)	0.35

# input I would be grateful if you could share the reported Concentration for O=[N+]([O-])c1nccn1CC(O)CNCCO (stereo unspecified) .
# output 3.5

# input What does the record list as Concentration for I.O=[N+]([O-])c1nccn1CC(O)CNCCI (stereo unspecified) ?
# output 0.08

# input Fill in the blank: the reported Concentration of Cl.F.O=[N+]([O-])c1nccn1CC(O)CNCCF (stereo unspecified) is ____.
# output 2.5

# input Returns the measured Concentration for the input compound. Input: O=[N+]([O-])c1nccn1CC(O)CN1CC1 (stereo unspecified)
# output 0.003
